Molecular target: Protein kinase C alpha type (Homo sapiens)
Assay: Inhibition of PKCalpha at 10 uM by colorimetric analysis
Activity calls are given as the source filed them. The calls are words filed in the database; no cut-off is given here.
PROPERTY: inhibition

> print(dat)
                   chemical.string    property  observed.measurement
1  Clc1ccc(-n2cc(-c3ccncc3)nn2)cc1  inhibition                Active
2    Clc1ccc(-n2nncc2-c2ccncc2)cc1  inhibition                Active
3  Clc1cccc(-n2cc(-c3ccncc3)nn2)c1  inhibition                Active
4    Clc1cccc(-n2nncc2-c2ccncc2)c1  inhibition                Active

###

Biological target: Cyclin-dependent kinase 2/cyclin A (Homo sapiens) (UniProt P24941+P20248+P78396)
Assay: Inhibition of CDK2/CycA2 at 10 uM by colorimetric analysis
Type: protein-complex assay
Active and inactive are the calls of the source. The rule behind the calls is not given here.
PROPERTY: inhibition

> print(dat)
                   chemical.string  observed.measurement
1  Clc1ccc(-n2cc(-c3ccncc3)nn2)cc1                Active
2    Clc1cccc(-n2nncc2-c2ccncc2)c1                Active
3  Clc1cccc(-n2cc(-c3ccncc3)nn2)c1                Active
4    Clc1ccc(-n2nncc2-c2ccncc2)cc1                Active

###

Entries with reported IC50 on UniProt P36888
Sequence (P36888 whole entry): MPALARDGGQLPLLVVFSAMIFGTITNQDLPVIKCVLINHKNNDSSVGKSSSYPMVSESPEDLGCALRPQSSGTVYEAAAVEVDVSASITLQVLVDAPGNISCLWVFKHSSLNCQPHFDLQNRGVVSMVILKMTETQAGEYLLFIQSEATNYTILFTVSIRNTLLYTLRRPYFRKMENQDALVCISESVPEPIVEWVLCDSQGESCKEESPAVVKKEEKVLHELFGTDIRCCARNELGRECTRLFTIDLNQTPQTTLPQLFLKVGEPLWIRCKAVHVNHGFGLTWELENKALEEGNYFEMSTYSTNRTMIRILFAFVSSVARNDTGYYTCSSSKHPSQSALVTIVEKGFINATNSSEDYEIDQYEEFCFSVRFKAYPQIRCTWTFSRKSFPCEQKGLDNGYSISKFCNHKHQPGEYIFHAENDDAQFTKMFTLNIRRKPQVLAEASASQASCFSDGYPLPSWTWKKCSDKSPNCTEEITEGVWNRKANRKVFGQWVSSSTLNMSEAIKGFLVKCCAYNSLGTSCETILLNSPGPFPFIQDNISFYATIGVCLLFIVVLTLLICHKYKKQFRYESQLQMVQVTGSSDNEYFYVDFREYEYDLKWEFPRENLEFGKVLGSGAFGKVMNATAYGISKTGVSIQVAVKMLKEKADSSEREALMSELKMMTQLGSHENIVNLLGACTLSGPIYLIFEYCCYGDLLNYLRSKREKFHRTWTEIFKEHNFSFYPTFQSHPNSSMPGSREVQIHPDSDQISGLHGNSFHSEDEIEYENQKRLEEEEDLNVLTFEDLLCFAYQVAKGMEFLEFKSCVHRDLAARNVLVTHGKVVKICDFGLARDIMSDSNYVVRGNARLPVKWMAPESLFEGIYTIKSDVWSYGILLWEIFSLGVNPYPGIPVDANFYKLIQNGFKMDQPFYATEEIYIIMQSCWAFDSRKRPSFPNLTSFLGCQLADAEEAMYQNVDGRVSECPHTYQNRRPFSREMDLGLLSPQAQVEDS
Write down the numeric answer in µM and omit the unit.

Previously resolved entries follow.
> print(dat)
                          molecule  observed.measurement
1     Cc1ccc(-n2nncc2-c2ccncc2)cc1                   2.3
2  Clc1ccc(-n2cc(-c3ccncc3)nn2)cc1                   5.8
3     Cc1ccccc1-n1cc(-c2ccccn2)nn1                   9.3

Recorded IC50 of `Cc1ccccc1-n1nncc1-c1ccncc1` , please.
6.2

Another molecule: `Clc1ccc(-n2cc(-c3ccccn3)nn2)cc1`
6.3

Thanks! And c1ccc(-c2cnnn2C2C3CC4CC(C3)CC2C4)nc1 (stereo unspecified) ?
10.2

###

Target: Glycogen synthase kinase-3 beta (Homo sapiens)
Sequence (P49841 whole entry): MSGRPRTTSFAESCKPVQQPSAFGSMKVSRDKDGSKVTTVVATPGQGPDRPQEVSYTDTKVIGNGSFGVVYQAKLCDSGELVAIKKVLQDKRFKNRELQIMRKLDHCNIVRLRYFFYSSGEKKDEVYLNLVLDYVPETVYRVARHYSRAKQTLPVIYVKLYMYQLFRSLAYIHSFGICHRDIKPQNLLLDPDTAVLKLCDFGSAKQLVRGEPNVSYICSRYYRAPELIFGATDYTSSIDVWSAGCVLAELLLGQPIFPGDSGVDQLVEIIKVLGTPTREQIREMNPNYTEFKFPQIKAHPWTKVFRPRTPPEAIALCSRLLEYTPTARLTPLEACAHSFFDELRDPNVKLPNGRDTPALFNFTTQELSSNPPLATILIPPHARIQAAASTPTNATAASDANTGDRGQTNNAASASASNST
pIC50: −log10 of the molar value.
Tag: 1 if measured pIC50 is not below 6, 0 if it is.

Example entries and their recorded answers appear below.
> print(dat)
                                   compound  label.value
1  c1cnc2cc(-c3cnnn3C3C4CC5CC(C4)CC3C5)ccc2n1 (stereo not given)            0
2  c1cc(-c2cnnn2C2C3CC4CC(C3)CC2C4)ccn1 (stereo not given)            0
3       c1ccc(Cn2cc(-c3ccc4nccnc4c3)nn2)cc1            0

Turning now to a further compound:
Confirm if pIC50 reported for the compound `Cc1ccccc1-n1cc(-c2ccccn2)nn1` is 6 or above.
1

###

Target: Inhibitor of nuclear factor kappa-B kinase subunit beta (Homo sapiens) (UniProt O14920)
Sequence (O14920 whole entry): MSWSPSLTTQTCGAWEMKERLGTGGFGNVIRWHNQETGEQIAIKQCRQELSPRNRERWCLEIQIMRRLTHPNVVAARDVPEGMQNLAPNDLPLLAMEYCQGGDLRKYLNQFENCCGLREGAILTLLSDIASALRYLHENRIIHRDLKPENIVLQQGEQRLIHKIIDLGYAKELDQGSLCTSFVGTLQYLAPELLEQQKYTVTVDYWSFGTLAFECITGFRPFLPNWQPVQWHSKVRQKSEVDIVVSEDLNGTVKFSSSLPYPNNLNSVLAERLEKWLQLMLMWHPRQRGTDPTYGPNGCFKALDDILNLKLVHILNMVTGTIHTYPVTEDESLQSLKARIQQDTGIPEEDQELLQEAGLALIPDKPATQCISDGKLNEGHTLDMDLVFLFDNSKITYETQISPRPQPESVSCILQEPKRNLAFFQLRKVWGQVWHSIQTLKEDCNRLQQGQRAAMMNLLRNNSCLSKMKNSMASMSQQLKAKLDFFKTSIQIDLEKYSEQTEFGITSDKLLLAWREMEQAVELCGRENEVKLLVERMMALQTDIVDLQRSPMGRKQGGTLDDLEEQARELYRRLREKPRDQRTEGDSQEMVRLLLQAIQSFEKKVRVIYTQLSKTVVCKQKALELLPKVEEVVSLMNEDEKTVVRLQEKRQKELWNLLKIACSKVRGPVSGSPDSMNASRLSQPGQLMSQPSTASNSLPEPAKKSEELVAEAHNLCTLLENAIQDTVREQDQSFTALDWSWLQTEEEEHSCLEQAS
Assay: Inhibition of IKK-beta at 10 uM by colorimetric analysis
The source made the active and inactive calls. The calls are words filed in the database; no cut-off is given here.
PROPERTY: inhibition

> print(dat)
                   chemical.string  observed.measurement
1    Clc1ccc(-n2nncc2-c2ccncc2)cc1                Active
2  Clc1ccc(-n2cc(-c3ccncc3)nn2)cc1                Active
3    Clc1cccc(-n2nncc2-c2ccncc2)c1                Active
4  Clc1cccc(-n2cc(-c3ccncc3)nn2)c1                Active
